Molecular target: ENaC (Homo sapiens, UniProt P37088+P51168+P51170)
Construct: host or cells: primary human bronchial epithelial cells (HBECs) differentiated at air-liquid interface
Sequence (P37088 1-669): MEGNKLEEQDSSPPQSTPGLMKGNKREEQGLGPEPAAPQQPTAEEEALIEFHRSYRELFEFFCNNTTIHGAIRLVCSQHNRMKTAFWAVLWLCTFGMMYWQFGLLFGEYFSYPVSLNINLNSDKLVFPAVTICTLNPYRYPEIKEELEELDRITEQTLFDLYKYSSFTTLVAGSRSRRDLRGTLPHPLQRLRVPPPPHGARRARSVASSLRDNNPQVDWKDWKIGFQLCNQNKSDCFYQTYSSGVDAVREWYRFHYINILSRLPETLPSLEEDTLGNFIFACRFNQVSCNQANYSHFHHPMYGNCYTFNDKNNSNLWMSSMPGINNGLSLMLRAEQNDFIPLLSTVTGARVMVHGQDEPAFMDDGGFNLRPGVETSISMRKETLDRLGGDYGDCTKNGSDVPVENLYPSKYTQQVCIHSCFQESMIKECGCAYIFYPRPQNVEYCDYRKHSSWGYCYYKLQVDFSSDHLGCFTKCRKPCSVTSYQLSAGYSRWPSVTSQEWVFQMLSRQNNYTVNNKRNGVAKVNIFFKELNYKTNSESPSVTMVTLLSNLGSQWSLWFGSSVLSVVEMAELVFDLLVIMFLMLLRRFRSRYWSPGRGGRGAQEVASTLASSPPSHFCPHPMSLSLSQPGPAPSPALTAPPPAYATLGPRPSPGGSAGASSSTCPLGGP
Sequence (P51168 1-640): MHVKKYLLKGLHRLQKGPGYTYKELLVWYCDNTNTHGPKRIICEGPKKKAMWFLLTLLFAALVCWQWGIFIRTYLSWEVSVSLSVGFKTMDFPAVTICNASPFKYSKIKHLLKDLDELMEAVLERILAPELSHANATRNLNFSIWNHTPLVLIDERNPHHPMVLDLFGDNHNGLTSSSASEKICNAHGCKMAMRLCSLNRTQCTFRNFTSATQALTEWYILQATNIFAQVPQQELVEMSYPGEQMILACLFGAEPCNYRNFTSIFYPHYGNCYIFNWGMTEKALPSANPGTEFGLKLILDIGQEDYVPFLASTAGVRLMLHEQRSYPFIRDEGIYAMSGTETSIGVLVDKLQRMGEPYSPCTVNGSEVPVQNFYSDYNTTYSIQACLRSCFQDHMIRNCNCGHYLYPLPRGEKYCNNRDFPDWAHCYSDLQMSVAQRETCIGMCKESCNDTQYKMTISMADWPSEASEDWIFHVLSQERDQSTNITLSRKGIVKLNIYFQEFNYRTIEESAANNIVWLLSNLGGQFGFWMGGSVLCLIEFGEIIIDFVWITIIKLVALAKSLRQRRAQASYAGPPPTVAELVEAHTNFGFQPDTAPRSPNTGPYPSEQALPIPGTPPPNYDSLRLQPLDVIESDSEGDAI
Sequence (P51170 1-649): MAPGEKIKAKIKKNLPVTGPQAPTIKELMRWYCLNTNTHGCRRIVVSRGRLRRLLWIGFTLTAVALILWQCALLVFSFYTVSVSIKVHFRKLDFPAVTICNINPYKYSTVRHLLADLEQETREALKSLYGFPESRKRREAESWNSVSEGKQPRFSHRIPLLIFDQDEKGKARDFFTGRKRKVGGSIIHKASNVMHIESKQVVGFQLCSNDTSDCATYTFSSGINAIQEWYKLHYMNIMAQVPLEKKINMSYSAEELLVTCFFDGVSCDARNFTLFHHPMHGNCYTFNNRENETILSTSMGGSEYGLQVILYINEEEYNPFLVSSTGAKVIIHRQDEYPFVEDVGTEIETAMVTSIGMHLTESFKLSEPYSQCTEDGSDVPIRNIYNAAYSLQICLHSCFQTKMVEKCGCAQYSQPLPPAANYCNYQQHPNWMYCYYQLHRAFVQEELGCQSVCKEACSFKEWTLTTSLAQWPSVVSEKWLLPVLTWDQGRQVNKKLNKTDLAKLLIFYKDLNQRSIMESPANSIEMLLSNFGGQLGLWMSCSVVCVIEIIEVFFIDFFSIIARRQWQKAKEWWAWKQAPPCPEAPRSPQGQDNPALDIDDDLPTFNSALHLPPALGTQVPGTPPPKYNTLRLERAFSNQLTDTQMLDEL
Test: Short circuit current assay to determine ENaC blocker potency in human bronchial epithelial cells
Type: cell-based
Settings: 50% inhibition of total amiloride-sensitive ISC, apical addition, read-out: Averages.ENaC IC50 (nM) Avg
Let's look at some compounds and their measured IC50.
quantity_name: IC50 (nM)

- query_smiles: "CCn1c(CNC(=O)c2nc3cc[nH]c3nc2N)[n+](CC)c2ccc(C(=O)NCCc3ccc(-c4ccc(CCN(C[C@H](O)[C@@H](O)[C@H](O)[C@H](O)CO)C[C@H](O)[C@@H](O)[C@H](O)[C@H](O)CO)cc4)cc3)cc21"
  quantity_name: "IC50"
  val: 22
- query_smiles: "CCn1c(CNC(=O)c2nc3cc[nH]c3nc2N)[n+](C)c2ccc(F)cc21"
  quantity_name: "IC50"
  val: 43
- query_smiles: "CCn1c(CNC(=O)c2nc3cc[nH]c3nc2N)[n+](CC)c2ccc(C(=O)O)cc21"
  quantity_name: "IC50"
  val: 160
- query_smiles: "CCn1c(CNC(=O)c2nc3cc[nH]c3nc2N)[n+](Cc2ccccc2)c2ccc(Cl)cc21"
  quantity_name: "IC50"
  val: 10
- query_smiles: "CCn1c(CNC(=O)c2nc3cc(C)[nH]c3nc2N)[n+](C)c2ccc(OC)cc21"
  quantity_name: "IC50"
  val: 8
- query_smiles: "CCn1c(CNC(=O)c2nc3cc[nH]c3nc2N)[n+](Cc2ccccc2)c2ccc(C(F)(F)F)cc21"
  quantity_name: "IC50"
  val: 15

---

Biological target: ENaC (Homo sapiens, UniProt P37088+P51168+P51170)
Construct: host or cells: primary human bronchial epithelial cells (HBECs) differentiated at air-liquid interface
Assay: Short circuit current assay to determine ENaC blocker potency in human bronchial epithelial cells
Type: cell-based
Details: 50% inhibition of total amiloride-sensitive ISC, apical addition, read-out: Averages.ENaC IC50 (nM) Avg
Structures can show the parent of a compound that is named as a salt.

- compound: "CCn1c(CNC(=O)c2nc3cc[nH]c3nc2N)[n+](CC)c2ccc(C(=O)NCCCN(C[C@H](O)[C@@H](O)[C@H](O)[C@H](O)CO)C[C@H](O)[C@@H](O)[C@H](O)[C@H](O)CO)cc21"
  IC50: "18 nM"
- compound: "Nc1nc2[nH]ccc2nc1C(=O)NCc1n(CC(=O)N2CCCCC2)c2ccccc2[n+]1Cc1ccccc1"
  IC50: "5450 nM"
- compound: "CCn1c(CNC(=O)c2nc3cc[nH]c3nc2N)[n+](CC)c2ccc(C(=O)N3CCC(N)CC3)cc21"
  IC50: "11 nM"
- compound: "CCn1c(CNC(=O)c2nc3cc[nH]c3nc2N)[n+](CC)c2ccc(-c3cnn(C4CCNCC4)c3)cc21"
  IC50: "1 nM"
- compound: "CCn1c(CNC(=O)c2nc3cc[nH]c3nc2N)[n+](CC)c2ccc(OC)cc21 [Example 7, formate]"
  IC50: "3 nM"
- compound: "CCn1c(CNC(=O)c2nc3cc[nH]c3nc2N)[n+](CC)c2ccc(OCCCN(C[C@H](O)[C@@H](O)[C@H](O)[C@H](O)CO)C[C@H](O)[C@@H](O)[C@H](O)[C@H](O)CO)cc21"
  IC50: "21 nM"

---

Biological target: ENaC (Homo sapiens, UniProt P37088+P51168+P51170)
Construct: host or cells: primary human bronchial epithelial cells (HBECs) differentiated at air-liquid interface
Test: Short circuit current assay to determine ENaC blocker potency in human bronchial epithelial cells
Assay type: cell-based
Details: 50% inhibition of total amiloride-sensitive ISC, apical addition, read-out: Averages.ENaC IC50 (nM) Avg
Description: Example 68—Short circuit current assay to determine ENaC blocker potency in human bronchial epithelial cells Human bronchial epithelial cells (HBECs) (Lonza, UK) were cultured using a modification of the method described by Coote et al, (2008). […]
Structures can show the parent of a compound that is named as a salt.
quantity_name: IC50 (nM)

- molecule: "CCn1c(CNC(=O)c2nc3cc[nH]c3nc2N)[n+](CC)c2ccc(C(=O)N(C)CCCN(C[C@H](O)[C@@H](O)[C@H](O)[C@H](O)CO)C[C@H](O)[C@@H](O)[C@H](O)[C@H](O)CO)cc21"
  experimental_system: "ENaC (Homo sapiens, UniProt P37088+P51168+P51170)"
  quantity_name: "IC50"
  unit_tag: "nM"
  val: 36
- molecule: "CCn1c(CNC(=O)c2nc3cc[nH]c3nc2N)[n+](CC)c2ccc(OCCCNC(=O)OC(C)(C)C)cc21"
  experimental_system: "ENaC (Homo sapiens, UniProt P37088+P51168+P51170)"
  quantity_name: "IC50"
  unit_tag: "nM"
  val: 4
- molecule: "CCn1c(CNC(=O)c2nc3cc[nH]c3nc2N)[n+](C)c2ccccc21 [Example 1, formate]"
  experimental_system: "ENaC (Homo sapiens, UniProt P37088+P51168+P51170)"
  quantity_name: "IC50"
  unit_tag: "nM"
  val: 33

These entries and their values trace back to patent US12371436B2.
